Recorded values, source paper PMC10503972.

# EXPERIMENTAL_TARGET: urease (Canavalia ensiformis, UniProt P07374)
# Sequence (P07374 whole entry, looked up): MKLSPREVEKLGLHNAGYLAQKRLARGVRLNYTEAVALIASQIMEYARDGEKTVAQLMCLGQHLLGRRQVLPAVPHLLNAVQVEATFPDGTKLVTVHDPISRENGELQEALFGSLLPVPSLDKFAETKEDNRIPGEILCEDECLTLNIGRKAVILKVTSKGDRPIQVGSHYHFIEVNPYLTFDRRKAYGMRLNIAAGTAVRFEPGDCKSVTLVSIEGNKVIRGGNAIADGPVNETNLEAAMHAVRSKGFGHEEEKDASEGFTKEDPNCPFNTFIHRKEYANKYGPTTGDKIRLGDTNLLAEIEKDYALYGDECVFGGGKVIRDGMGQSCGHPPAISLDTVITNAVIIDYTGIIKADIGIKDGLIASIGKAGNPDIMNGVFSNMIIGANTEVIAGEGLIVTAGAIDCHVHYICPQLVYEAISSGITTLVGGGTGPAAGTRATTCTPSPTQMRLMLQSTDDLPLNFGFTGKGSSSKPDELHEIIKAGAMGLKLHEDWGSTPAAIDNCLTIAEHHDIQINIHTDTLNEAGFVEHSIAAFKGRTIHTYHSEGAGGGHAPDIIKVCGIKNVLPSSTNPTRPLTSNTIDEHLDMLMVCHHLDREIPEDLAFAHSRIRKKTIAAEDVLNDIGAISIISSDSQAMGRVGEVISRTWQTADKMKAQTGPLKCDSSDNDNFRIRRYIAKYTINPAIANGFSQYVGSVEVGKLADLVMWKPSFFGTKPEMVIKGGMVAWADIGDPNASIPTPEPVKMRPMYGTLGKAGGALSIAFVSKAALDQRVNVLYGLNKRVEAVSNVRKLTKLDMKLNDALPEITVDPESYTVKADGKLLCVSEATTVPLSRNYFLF
MEASURED_QUANTITY: IC50 (µM)
Value expressed in µM; do not type the unit.

Q: Could you share what IC50 was measured for NC(N)=S , tested on urease (Canavalia ensiformis, UniProt P07374)?
Result: 24.2
